Values compiled from ChEMBL document CHEMBL4152218.

Procedure Summary: Selectivity index, ratio of IC50 for hTERT-BJ cells to IC50 for human PANC1 cells
Format: toxicity
Setup Conditions: hTERT-BJ cells versus PANC1 cells, read-out: Ratio IC50
Quick list: selectivity ratio per entry.

The examples below pair each entry with its known result.
line_notation=Cc1noc(NS(=O)(=O)c2ccc(NC(=O)c3cc4cc([N+](=O)[O-])ccc4oc3=O)cc2)c1C value_measured="> 4.19"
line_notation=Cc1noc(NS(=O)(=O)c2ccc(NC(=O)c3cc4cc(Br)ccc4oc3=O)cc2)c1C value_measured="> 1.74"
line_notation=CCOc1ccc2nc(Cl)c(/C=N/NC(=O)c3cc4ccccc4oc3=O)cc2c1 value_measured="> 1.67"
line_notation=O=C(N/N=C/c1ccncc1)c1cc2ccccc2oc1=O value_measured="> 5.13"
line_notation=O=C(N/N=C/c1ccncc1)c1cc2cc([N+](=O)[O-])ccc2oc1=O value_measured="> 1.92"

Task: Query (compound): O=C(N/N=C/c1cccnc1)c1cc2ccccc2oc1=O ; field requested: selectivity ratio
Output: > 3.27

Task: Query (compound): O=C(N/N=C/c1ccncc1)c1cc2cc(Br)ccc2oc1=O ; field requested: selectivity ratio
Output: > 1.94

Task: Query (compound): Cc1noc(NS(=O)(=O)c2ccc(NC(=O)c3cc4ccc(O)cc4oc3=O)cc2)c1C ; field requested: selectivity ratio
Output: > 3.09

Task: Query (compound): CCOc1ccc(NC(=O)c2cc3cc([N+](=O)[O-])ccc3oc2=O)cc1 ; field requested: selectivity ratio
Output: > 4.13

Task: Query (compound): CCOc1ccc(NC(=O)c2cc3ccccc3oc2=O)cc1 ; field requested: selectivity ratio
Output: > 3.74
